Measured IC50 by item
- experimental-system: PGD2 receptor (Homo sapiens, UniProt Q13258)
- Construct: Peripheral blood was collected from a healthy volunteer; endogenous in cells; host or cells: washed human platelets from peripheral blood of a healthy volunteer
- Sequence (Q13258 whole entry): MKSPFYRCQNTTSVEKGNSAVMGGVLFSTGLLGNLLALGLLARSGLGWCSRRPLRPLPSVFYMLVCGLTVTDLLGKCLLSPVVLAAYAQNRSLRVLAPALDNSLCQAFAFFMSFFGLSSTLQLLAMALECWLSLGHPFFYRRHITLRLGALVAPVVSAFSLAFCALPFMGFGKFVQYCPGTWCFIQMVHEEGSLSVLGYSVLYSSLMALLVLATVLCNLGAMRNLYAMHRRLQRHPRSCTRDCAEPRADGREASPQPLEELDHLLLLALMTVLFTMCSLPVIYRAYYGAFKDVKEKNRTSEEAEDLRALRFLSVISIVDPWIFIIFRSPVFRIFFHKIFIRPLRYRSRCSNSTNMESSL
- assay: Antagonistic activity against PGD2 receptor using human platelet (inhibition of PGD2-induced cAMP increase)
- Assay type: cell-based
- protocol-conditions: 0.1 μM PGD2, cAMP by radioimmunoassay, read-out: Inhibitory activity for the increase of cAMP caused by PGD2 in human platelet IC50
measure-name: IC50 (nM)

>>> df
                                smiles_text  unit_annotation  quantitative_readout
0  CC1(C)[C@H]2C[C@H](CCCCOCC(=O)O)[C@@H](NC(=O)c3csc4ccc(CNC(N)=O)cc34)[C@@H]1C2               nM                    11
1  CC1(C)[C@H]2C[C@H](CCCCOCC(=O)O)[C@@H](NC(=O)c3csc4cc(O)ccc34)[C@@H]1C2               nM                   4.6
2  CC1(C)[C@H]2C[C@H](CCCC/C=C/C(=O)O)[C@@H](NC(=O)c3csc4ccc(F)cc34)[C@@H]1C2               nM                    16
3  CC1(C)[C@H]2C[C@H](CCCCSCC(=O)O)[C@@H](NC(=O)c3csc4ccc(F)cc34)[C@@H]1C2               nM                    17
4  CC1(C)[C@H]2C[C@H](CCCCOCC(=O)O)[C@@H](NC(=O)c3csc4ccc(C(N)=O)cc34)[C@@H]1C2               nM                     6
5  O=C(O)COCCCC[C@H]1[C@@H]2CC[C@@H](C2)[C@@H]1NC(=O)c1csc2cc(O)ccc12               nM                    10
6  Cc1ccc2scc(C(=O)N[C@H]3[C@H]4CC[C@H](C4)[C@@H]3CCCC/C=C/C(=O)O)c2c1               nM                    17

* * *

Measured melting point by item
measure-name: melting point

In [3]: df
Out[3]:
                                   compound   measure_name         result
0  CC1(C)[C@H]2C[C@H](CCCC/C=C/C(=O)O)[C@@H](NC(=O)c3cccc4ccsc34)[C@@H]1C2 [IIa-34]  melting point  141 to 142 °C
1  CC1(C)[C@H]2C[C@H](CCCCOCC(=O)O)[C@@H](NC(=O)c3csc4ccc(F)cc34)[C@@H]1C2 [IIc-28]  melting point  144 to 146 °C
2  CC1(C)[C@H]2C[C@H](CCCCSCC(=O)O)[C@@H](NC(=O)c3csc4ccc(F)cc34)[C@@H]1C2 [IIe-28]  melting point  197 to 199 °C
3  CC1(C)[C@H]2C[C@H](CCCCSCC(=O)O)[C@@H](NC(=O)c3cccc4ccsc34)[C@@H]1C2 [IIe-34]  melting point  143 to 144 °C

* * *

Measured IC50 by item
- experimental-system: PGD2 receptor (Homo sapiens)
- Construct: Peripheral blood was collected from a healthy volunteer; endogenous in cells; host or cells: washed human platelets from peripheral blood of a healthy volunteer
- assay: Antagonistic activity against PGD2 receptor using human platelet (inhibition of PGD2-induced cAMP increase)
- Assay type: cell-based
- protocol-conditions: 0.1 μM PGD2, cAMP by radioimmunoassay, read-out: Inhibitory activity for the increase of cAMP caused by PGD2 in human platelet IC50
measure-name: IC50

In [3]: df
Out[3]:
                                 smiles_text           experimental_system  result
 0  CC1(C)[C@H]2C[C@H](CCCCOCC(=O)O)[C@@H](NC(=O)c3csc4cc(F)c(O)cc34)[C@@H]1C2  PGD2 receptor (Homo sapiens)    5 nM
 1  Cc1ccc2scc(C(=O)N[C@@H]3[C@@H](CCCCOCC(=O)O)C[C@H]4C[C@@H]3C4(C)C)c2c1  PGD2 receptor (Homo sapiens)   15 nM
 2  CC1(C)[C@H]2C[C@H](CCCCOCC(=O)O)[C@@H](NC(=O)c3csc4ccc(NC(N)=O)cc34)[C@@H]1C2  PGD2 receptor (Homo sapiens)    8 nM
 3  CC1(C)[C@H]2C[C@H](CCCC/C=C/C(=O)O)[C@@H](NC(=O)c3cccc4ccsc34)[C@@H]1C2  PGD2 receptor (Homo sapiens)   14 nM
 4  CC1(C)[C@H]2C[C@H](CCCCOCC(=O)O)[C@@H](NC(=O)c3coc4ccc(NC(N)=O)cc34)[C@@H]1C2  PGD2 receptor (Homo sapiens)    3 nM
 5  Cc1cc(O)cc2c(C(=O)N[C@@H]3[C@@H](CCCCOCC(=O)O)C[C@H]4C[C@@H]3C4(C)C)coc12  PGD2 receptor (Homo sapiens)    8 nM
 6  CC1(C)[C@H]2C[C@H](CCCCSCC(=O)O)[C@@H](NC(=O)c3cccc4ccsc34)[C@@H]1C2  PGD2 receptor (Homo sapiens)   19 nM
 7  CC1(C)[C@H]2C[C@H](CCCC/C=C/C(=O)O)[C@@H](NC(=O)c3ccsc3)[C@@H]1C2  PGD2 receptor (Homo sapiens)   19 nM
 8  CC1(C)[C@H]2C[C@H](CCCC/C=C/C(=O)O)[C@@H](NC(=O)c3csc4ccccc34)[C@@H]1C2  PGD2 receptor (Homo sapiens)   15 nM
 9  CC1(C)[C@H]2C[C@H](CCCC/C=C/C(=O)O)[C@@H](NC(=O)c3csc4ccc(O)cc34)[C@@H]1C2  PGD2 receptor (Homo sapiens)  2.5 nM
10  CC1(C)[C@H]2C[C@H](CCCC/C=C/C(=O)O)[C@@H](NC(=O)c3csc4cc(O)ccc34)[C@@H]1C2  PGD2 receptor (Homo sapiens)  3.7 nM
11  CC1(C)[C@H]2C[C@H](CCCCOCC(=O)O)[C@@H](NC(=O)c3ccsc3)[C@@H]1C2  PGD2 receptor (Homo sapiens)   18 nM
12  CC1(C)[C@H]2C[C@H](CCCCOCC(=O)O)[C@@H](NC(=O)c3csc4ccc(CNS(C)(=O)=O)cc34)[C@@H]1C2  PGD2 receptor (Homo sapiens)   17 nM
13  O=C(O)COCCCC[C@H]1[C@@H]2CC[C@@H](C2)[C@@H]1NC(=O)c1coc2ccc(O)cc12  PGD2 receptor (Homo sapiens)   10 nM
14  CC1(C)[C@H]2C[C@H](CCCC/C=C/C(=O)O)[C@@H](NC(=O)c3coc4ccc(O)cc34)[C@@H]1C2  PGD2 receptor (Homo sapiens)  3.7 nM

* * *

- experimental-system: PGD2 receptor (Homo sapiens, UniProt Q13258)
- Construct: Peripheral blood was collected from a healthy volunteer; endogenous in cells; host or cells: washed human platelets from peripheral blood of a healthy volunteer
- assay: Binding activity to PGD2 receptor (human platelet membrane fraction, [3H]PGD2)
- protocol-conditions: 5 nM [3H]PGD2, 4° C., 90 min
measure-name: IC50 (nM)

>>> print(df.to_string())
                                   molecule  measure_name  quantitative_readout
0  CC1(C)[C@H]2C[C@H](CCCCOCC(=O)O)[C@@H](NC(=O)c3coc4ccc(O)cc34)[C@@H]1C2 [IIc-52]          IC50                   3.5
1  O=C(O)COCCCC[C@H]1[C@@H]2CC[C@@H](C2)[C@@H]1NC(=O)c1coc2ccc(O)cc12 [Ic-52]          IC50                    74
2  CC1(C)[C@H]2C[C@H](CCCC/C=C/C(=O)O)[C@@H](NC(=O)c3csc4ccc(O)cc34)[C@@H]1C2 [IIa-23]          IC50                    33
3  CC1(C)[C@H]2C[C@H](CCCCOCC(=O)O)[C@@H](NC(=O)c3csc4ccc(O)cc34)[C@@H]1C2 [IIc-23]          IC50                   9.5

* * *

Measured melting point by item
measure-name: melting point

In [3]: df
Out[3]:
                                smiles_text         result
0  CC1(C)[C@H]2C[C@H](CCCCOCC(=O)O)[C@@H](NC(=O)c3cccc4ccsc34)[C@@H]1C2    95 to 96 °C
1  Cc1ccc2scc(C(=O)N[C@@H]3[C@@H](CCCCOCC(=O)O)C[C@H]4C[C@@H]3C4(C)C)c2c1    87 to 90 °C
2  O=C(O)/C=C/CCCC[C@H]1[C@@H]2CC[C@@H](C2)[C@@H]1NC(=O)c1csc2ccccc12  155 to 157 °C
3  CC1(C)[C@H]2C[C@H](CCCCOCC(=O)O)[C@@H](NC(=O)c3csc4ccc(C(N)=O)cc34)[C@@H]1C2  164 to 166 °C
4  O=C(O)COCCCC[C@H]1[C@@H]2CC[C@@H](C2)[C@@H]1NC(=O)c1csc2ccc(O)cc12  149 to 151 °C
5  O=C(O)COCCCC[C@H]1[C@@H]2CC[C@@H](C2)[C@@H]1NC(=O)c1csc2cc(O)ccc12    76 to 79 °C
6  CC1(C)[C@H]2C[C@H](CCCCOCC(=O)O)[C@@H](NC(=O)c3csc4ccccc34)[C@@H]1C2  125 to 126 °C
7  Cc1ccc2scc(C(=O)N[C@H]3[C@H]4CC[C@H](C4)[C@@H]3CCCC/C=C/C(=O)O)c2c1  129 to 131 °C
8  CC1(C)[C@H]2C[C@H](CCCC/C=C/C(=O)O)[C@@H](NC(=O)c3coc4ccc(O)cc34)[C@@H]1C2  159 to 160 °C
